# Test system: THRa homodimer (NR concentration 90 nM)
# experimental-details: PBM binding z-score (relative to random genomic background probes); higher = stronger binding; sequences stand for … in GC…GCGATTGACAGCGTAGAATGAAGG
Field: class. Source value: PBM binding z-score. Ranges: bottom: < -0.4; middle: ≥ -0.4 and < 1; top: ≥ 1

Some solved cases for reference:
{"columns": ["chain", "assigned-label"],
 "data": [
  ["TCATATAGGTAAAGATGAAAGTCGAACGATATGA", "bottom"],
  ["CATACAGGGTTAGCTAGGCCAGAGTAGGGACGGC", "bottom"],
  ["TCGAGTAGGTTACCAATGGGGCATTGAGCTTTCT", "bottom"],
  ["CCTGCTACGTCATGGTCAGCTAATCTACAGTATG", "bottom"],
  ["CCTATCAGGCCAGGGTCACTCAAGCATTTCGCTT", "top"],
  ["TCTAGCAGGCCAGAGGGTCACTAAAGAGGTACGG", "bottom"],
  ["CGTCCAAGGTCAGAGACGTCAGTGAATGCCGAGT", "top"],
  ["AGTCAAAGCTCACTAGGTAACGTAAGATTCAGCT", "middle"],
  ["TCTTGTAGATCAATAGAGGTTAACAAAGTGCGCT", "bottom"],
  ["TCTATTAGTTGATTAAGGCAACCGAAACAGCGGA", "middle"]
]}

Band for the recorded PBM binding z-score of ATCTCTAGGTAACCAAGTTCATTGAATGCCGAAC ?
top

// repeat for GATACAGGGTCAGCTAGAGCCCAGAGTATGGAAA and report
middle

// repeat for AGAATGACGTTACCAAAGATCAGGGAAACGCTTG and report
bottom

// repeat for AGAATGAGGTTATTAAGATCGGGGAATTGCGGTC and report
middle

// repeat for TCATATAGGTAATACGGGTGAAAGTCGGCATCTA and report
middle

// repeat for GCTGCTAGGTCAGGTTTGTCAGCTAACGGGTACG and report
middle

// repeat for TATACAGGGTCAAAGGCAAGAGTACGAATGTCGA and report
top

// repeat for CCTACTGTGCCATCAGGTCATTGATATCAACGTT and report
top

// repeat for TAGCCTAGGCCAGATCGGGCCAGTATACGCTATA and report
bottom

// repeat for ATATGTAGGTTAGCTGGGGTAATTCAGACTAGGC and report
middle

// repeat for CCTACTGGGGCAAGGTCATTGATCAGTCAAAGCA and report
top

// repeat for CGAACTAGGTCATTGATAGGACAGTGAATAGTAA and report
middle

// repeat for CCTACGGGGCCATCAGGTCATTGATATCAACGTT and report
top

// repeat for CAAACTAGGTCATGAAAGGTCAAAGTCGAATGAC and report
top

// repeat for GCAGACACGTGAAACGCAGGTAACTCAGGGTGGC and report
bottom
